PROTOCOL NOTES: In-vivo pharmacokinetic parameters in mice
Set-up: species or system Balb-c mice
EXPERIMENTAL CONDITIONS: male, Balb-c, mouse, plasma, PO, 5 mg/kg
QUANTITY NAME: AUC(0-t) (µM·h)

Some entries whose results are on file:
chemical_string=C[C@H](C(=O)N[C@H](CO)c1cccc(Cl)c1)N1Cc2ccc(-c3nc(NC4CCOCC4)ncc3Cl)c(F)c2C1=O reported_value=0.797
chemical_string=Cc1cccc([C@@H](CO)NC(=O)[C@@H](C)N2Cc3ccc(-c4nc(NC5CCOCC5)ncc4Cl)c(F)c3C2=O)c1 reported_value=0.776

1. COc1cc(F)cc([C@@H](CO)NC(=O)[C@@H](C)N2Cc3ccc(-c4nc(NC5CCOCC5)ncc4Cl)c(F)c3C2=O)c1
2. Cc1cccc([C@@H](CO)NC(=O)[C@@H](C)N2Cc3ccc(-c4nc(NC5CCOCC5)ncc4F)c(F)c3C2=O)c1
3. C[C@H](C(=O)N[C@H](CO)c1cccc(Cl)c1)N1Cc2ccc(-c3nc(NC4CCOCC4)ncc3F)c(F)c2C1=O
INPUT: Order the records so the highest AUC(0-t) appears first and the lowest last. The response must list the labels following the requested ordering.
OUTPUT: 3, 2, 1
(3: 1.57 µM·h, 2: 1.05 µM·h, 1: 0.322 µM·h)
